- System: HT29 colon
- assay.summary: NCI-60 one-dose screen, 48 h (100 = growth as untreated, 0 = no growth, -100 = all killed)
- condition.set: 10 µM unless noted
This is part of a sample that, as a whole, favours compounds with a hit. Of some 83,000 tested, about 20% had one in any assay.
observable: growth (%)

>>> experimental_result("COc1cc(/C=C\\c2cc(OC)c(OC)c(OC)c2)cc(N/C=C\\C(=O)c2cc(OC)c(OC)c(OC)c2)c1OC")
3.93
>>> experimental_result("COC(=O)C1OC(Oc2ccc(N(CCCl)CCCl)cc2)C(OC(C)=O)C(OC(C)=O)C1OC(C)=O (stereo not drawn)")
80.7
>>> experimental_result("C=C1[C@@H](C)[C@H]2[C@H](Cc3ccccc3)NC(=O)[C@]23[C@@H](O)/C=C/[C@@](C)(O)C(=O)[C@@H](C)C/C=C/[C@H]3[C@@H]1O")
25.3
>>> experimental_result("COc1cc2c(cc1OCCCCn1c(-c3cccs3)nc3ccccc31)N=C[C@@H]1CCCN1C2=O")
2.34
>>> experimental_result("O=[N+]([O-])c1c(Br)sc(Br)c1[N+](=O)[O-]")
-58
>>> experimental_result("CC(=O)O[C@H](C[C@H](C(C)C)N(C)C(=O)[C@@H](NC(=O)[C@H]1CCCN1C)C(C)C)c1nc(C(=O)N[C@@H](Cc2ccccc2)C[C@H](C)C(=O)O)c(C)s1")
2.64
>>> experimental_result("ClCCN(CCCl)c1ccc(/C=N\\N=C\\c2ccc(N(CCCl)CCCl)cc2)cc1")
39.3
>>> experimental_result("CC(C)(C)N1CC1C#N (stereo not drawn)")
105
>>> experimental_result("O=C(O)c1c(Cl)n(Cc2ccc(O)cc2)c2ccc(O)cc12")
110
>>> experimental_result("Nc1c(F)cc(-c2nc3cc(F)ccc3[se]2)cc1F")
46.4
>>> experimental_result("CCCCCCCCCCCCNC(c1ccccc1)C(O)c1ccccc1 (stereo not drawn)")
52
>>> experimental_result("C[N+](C)(C)Cc1cc(Cl)ccc1O")
97.5
>>> experimental_result("C/C(=C\\c1ccn(-c2ccc(N)cc2)n1)[C@@H]1C[C@@H]2O[C@]2(C)CCC[C@H](C)[C@H](O)[C@@H](C)C(=O)C(C)(C)[C@@H](O)CC(=O)O1")
15.4
>>> experimental_result("COC(=O)[C@@H](C)C[C@H](Cc1ccccc1)NC(=O)c1csc([C@@H](C[C@H](C(C)C)N(C)C(=O)[C@H](C)NC(=O)[C@H]2CCCCN2C)OC(C)=O)n1")
9.42
>>> experimental_result("Cc1ccc(C(=O)NCCCOc2ccc(N)cc2Cl)cc1S(=O)(=O)F")
101
>>> experimental_result("COc1ccc2c(c1)c(-c1nc(-c3c[nH]c4ncccc34)cs1)cn2CCCCN1CCCCC1")
-72.4
>>> experimental_result("N/C(=N\\N=C\\c1ccc(-c2ccccc2)cc1)N[N+](=O)[O-]")
14
>>> experimental_result("c1ccc(CSC(c2ccccc2)c2ccccc2)cc1")
84.1

###

- System: HOP-92 NSCLC
- assay.summary: NCI-60 one-dose screen, 48 h
- condition.set: 10 µM unless noted
The panel holds about 83,000 compounds, 20% with a hit somewhere; the sample as a whole holds those more often. Activity calls are given as the source filed them. How the source made its calls: active means growth percent below 10; inactive means the rest.
Classes used: active, inactive

>>> class_label("C=C1C(=O)O[C@H]2[C@H]1CC/C(COC(=O)C(=O)c1cn(Cc3ccccc3)c3ccccc13)=C\\CC[C@@]1(C)O[C@@H]21")
"active"
>>> class_label("CCNc1nc(Cl)nc(NCC)n1")
"inactive"
>>> class_label("CC12CCC(O)CC1=CCC1C2CCC2(C)C(O)CCC12 (stereo unspecified)")
"inactive"
>>> class_label("O=C(CCCCCNC1=CC(=O)c2ccccc2C1=O)NCCC[Te]c1ccccc1")
"active"
>>> class_label("CC(=O)O[C@H]1C(=O)[C@@]2(C)[C@H]([C@H](OC(=O)c3ccccc3)[C@]3(O)C[C@H](OC(=O)[C@H](OC(=O)OC[C@H]4COC(C)(C)O4)[C@@H](NC(=O)c4ccccc4)c4ccccc4)C(C)=C1C3(C)C)[C@]1(OC(C)=O)CO[C@@H]1C[C@@H]2O")
"inactive"
>>> class_label("Cc1cnc(/C=C/C(=O)O)cc1-c1cc2c(cc1C)C(C)(C)CCC2(C)C")
"inactive"
>>> class_label("O=C(CCl)c1ccc([N+](=O)[O-])o1")
"active"
>>> class_label("Oc1c(CCl)cc(Cl)cc1CCl")
"inactive"
>>> class_label("CC12CCC3C(C=CC4=C(N)C(=O)CCC43C)C1CCC2=O (stereo unspecified)")
"inactive"
>>> class_label("C[C@@]12CC[C@@H](O)C[C@@H]1CC[C@H]1[C@H]2CC[C@@]2(C)[C@H](c3ccc(=O)oc3)CC[C@@]12O")
"active"
>>> class_label("CC(=O)OC1C(OC/C2=C/C3[C@@H](C(C)C)CC=C(C)[C@@H]3CC(OC(=O)/C=C/c3cn(C)cn3)[C@]3(C)C=C[C@@]2(O)O3)OCC(O)C1O (stereo partly specified)")
"inactive"
>>> class_label("N#C[Se]Cc1cc(-c2ccccc2)n(-c2ccc(S(N)(=O)=O)cc2)n1")
"active"
>>> class_label("CCn1c2ccccc2c2cc(C(=O)c3cccc4c3CCCN4)ccc21")
"inactive"
>>> class_label("CC(C)(C)C(=O)OCOP(=O)(OCOC(=O)C(C)(C)C)C1CCCN(O)C1=O (stereo unspecified)")
"active"
>>> class_label("Cc1c2cc(Cl)c3ccccc3c2c[n+]2ccccc12")
"inactive"
>>> class_label("ClCCN(CCCl)c1ccc(/C=N\\N=C\\c2ccc(N(CCCl)CCCl)cc2)cc1")
"inactive"
>>> class_label("Nc1ccc(-c2nc3cc(F)ccc3[se]2)cc1F")
"inactive"
>>> class_label("COc1ccc(/C=C\\c2cc(OC)c(OC)c(OC)c2)cc1NC(=O)/C=C/c1cc(OC)c(OC)c(OC)c1")
"inactive"
>>> class_label("O=c1[nH]cc(N(CCCl)CCCl)c(=O)[nH]1")
"active"
>>> class_label("O=C(O)CNC(=O)C(Cl)(Cl)Cl")
"inactive"
>>> class_label("Cc1ccc(C(=O)NCCCOc2ccc(N3C(N)=NC(N)=NC3(C)C)cc2Cl)cc1S(=O)(=O)F")
"inactive"
>>> class_label("COc1ccc(S(=O)(=O)Nc2c(/C=C\\c3cc(OC)c(OC)c(OC)c3)ccc(OC)c2O)cc1OC")
"inactive"
>>> class_label("CN1C(=O)N[C@H]2[C@@H]3NC(=O)c4ccc(Br)n4[C@@H]3C[C@]21O")
"active"
>>> class_label("COc1ccc(/C=C\\c2cc(OC)c(OC)c(OC)c2)c(NS(=O)(=O)c2ccc(F)cc2)c1O")
"inactive"
>>> class_label("CCOP1(=O)CC(C)=C(Cl)C(P(=O)(OCC)OCC)C1 (stereo unspecified)")
"inactive"
>>> class_label("CC1=C(CN)C2=C(C)C3(CC3)[C@@](C)(O)C(=O)C2=C1")
"inactive"
